- Test system: Tamiflu-resistant 2009 pandemic influenza A (H1N1) virus (H275Y mutation in neuraminidase)
- Condition: dog
Assay Readout: SI (selective index = CC50/EC50), H1N1 Tamiflu-resistant

| Smiles Structure | Result |
| --- | --- |
| COc1cc2oc(-c3ccc(Br)cc3)cc(=O)c2c(O)c1OC | >71.4 |
| O=c1cc(-c2ccc(Br)cc2)oc2cc(O)c(O)c(O)c12 | >66.7 |
| COc1c(O)cc2oc(-c3ccc(Br)cc3)cc(=O)c2c1O | >70.0 |
| COc1c(O)cc2oc(-c3cccc(Br)c3)cc(=O)c2c1O | >69.8 |
| O=c1cc(-c2cccc(Br)c2)oc2cc(O)c(O)c(O)c12 | >66.7 |

Where do these numbers come from? They come from patent US20150329515A1.
